# Assay: Stability of L-DOPA ethyl ester prepared according to Examples 1 and 2 (Table 2)
# Type: physicochemical
# Applied Conditions: storage, 25° C. -N2, 2 m
Measurement Label: remaining at 1440 h (%)
Answers are plain numbers, in %.

Give its remaining at 1440 h value. Item: CCOC(=O)[C@@H](N)Cc1ccc(O)c(O)c1
99.4

* * *

# Assay: Stability of L-DOPA ethyl ester prepared according to Examples 1 and 2 (Table 2)
# Assay type: physicochemical
# Applied Conditions: storage, 25° C. -N2, 4 m
Measurement Label: remaining at 2880 h (%)
Answers are plain numbers, in %.

Give its remaining at 2880 h value. Item: CCOC(=O)[C@@H](N)Cc1ccc(O)c(O)c1
99.5

* * *

# Assay: Stability of L-DOPA ethyl ester prepared according to Examples 1 and 2 (Table 2)
# Format: physicochemical
# Applied Conditions: storage, 40° C., 1 m
Measurement Label: remaining at 720 h (%)
One number for each entry, in %.

Give its remaining at 720 h value. Item: CCOC(=O)[C@@H](N)Cc1ccc(O)c(O)c1 [L-DOPA ethyl ester]
98.9

* * *

# Assay: Stability of L-DOPA ethyl ester prepared according to Examples 1 and 2 (Table 2)
# Type: physicochemical
# Applied Conditions: storage, 40° C., 2 m
Measurement Label: remaining at 1440 h (%)
Answers are plain numbers, in %.

Give its remaining at 1440 h value. Item: CCOC(=O)[C@@H](N)Cc1ccc(O)c(O)c1 [L-DOPA ethyl ester]
99.6

* * *

# Assay: Stability of L-DOPA ethyl ester prepared according to Examples 1 and 2 (Table 2)
# Assay type: physicochemical
# Applied Conditions: storage, 25° C. -N2, 1 m
# From the text: | STABILITY OF L-DOPA ESTER PREPARED
Measurement Label: remaining at 720 h (%)
One number for each entry, in %.

Give its remaining at 720 h value. Item: CCOC(=O)[C@@H](N)Cc1ccc(O)c(O)c1
98
